System: 786-0
assaySummary: NCI tumour cell line growth inhibition, 48 h
Activity calls are given as the source filed them. Cut-off read from the data, not from the text of the source: active = GI50 up to about 1.1 µM and inactive = higher.
Outcomes: active, inactive

>  <molecule>
Cn1ccnc1Sc1ccc(/C=N\NC(=O)c2cccc(F)c2)cc1[N+](=O)[O-]

>  <assignedCategory>
inactive

$$$$
>  <molecule>
CSCSSC

>  <assignedCategory>
inactive

$$$$
>  <molecule>
C/C(=N\N=C1/C(=O)OC(c2ccccc2)=C1C(=O)c1ccccc1)c1ccc([N+](=O)[O-])cc1

>  <assignedCategory>
inactive

$$$$
>  <molecule>
C#CCN(CC#C)C(=O)C(=O)c1c[nH]c2ccc(OC)cc12

>  <assignedCategory>
inactive

$$$$
>  <molecule>
Cc1cc(S(=O)(=O)N/C(=N/N)NCCc2ccccc2)c(S)cc1Cl

>  <assignedCategory>
inactive

$$$$
>  <molecule>
COc1ccc2c(c1O)C13CCN(C)C(C2)C1CCC1(C3)OCCO1 (centres undefined)

>  <assignedCategory>
inactive

$$$$
>  <molecule>
CCOC(=O)/C(=C/c1ccc(C#N)cc1)N(CC)CC

>  <assignedCategory>
inactive

$$$$
>  <molecule>
COC(=O)/C=C/C1C(C(=O)OC)C2(C(=O)OC)CCC1(C(=O)OC)N2 (centres undefined)

>  <assignedCategory>
inactive

$$$$
>  <molecule>
CCCCCN(CCCCC)CC(C)(C)C(O)c1ccc(OC)c2ccccc12 (centres undefined)

>  <assignedCategory>
inactive

$$$$
>  <molecule>
CCCCn1c(N)c(-c2nc3ccccc3o2)sc1=S

>  <assignedCategory>
inactive

$$$$
>  <molecule>
CC1OC(CC(=O)O)CC2=C1C(=O)c1c(O)cccc1C2=O (centres undefined)

>  <assignedCategory>
active

$$$$
>  <molecule>
O=c1c2ccccc2n2c(-c3ccc(O)cc3)nnc2n1-c1ccccc1

>  <assignedCategory>
inactive

$$$$
>  <molecule>
Brc1ccc(/C(N=N/C(=N\Sc2ccccc2)c2ccc(Br)cc2)=N/Sc2ccccc2)cc1

>  <assignedCategory>
inactive

$$$$
>  <molecule>
CCO/C=N\C1=C(C#N)SC2=N/C(=C\c3ccco3)C(=O)N21

>  <assignedCategory>
inactive

$$$$
>  <molecule>
CC(CN1NC12CCCC2)N1NC12CCCC2 (centres undefined)

>  <assignedCategory>
inactive

$$$$
>  <molecule>
COc1ccc(O)cc1

>  <assignedCategory>
inactive

$$$$
>  <molecule>
Oc1ccc2ccccc2c1/C=N/Cc1c(O)ccc2ccccc12

>  <assignedCategory>
inactive

$$$$
>  <molecule>
COC(=O)CCSC1=CC(=O)c2nc3ccccc3c3ccnc1c23

>  <assignedCategory>
inactive

$$$$
>  <molecule>
CCNC12CCC(C1)C(C)(C)C2=O (centres undefined)

>  <assignedCategory>
inactive

$$$$
>  <molecule>
COC(=O)c1c(C)ccc2c(O)c3c(cc12)C(=O)c1c2c(cc(O)c1C3=O)C1(C)OC(C)(O2)C(O)C(N(C)C)C1O (centres undefined)

>  <assignedCategory>
active

$$$$
>  <molecule>
Cc1c(O)nc(-n2[nH]c3c(c2=O)CCCC3)[nH]c1=O

>  <assignedCategory>
inactive

$$$$
>  <molecule>
CCCCCCC(C)CC(CCCCCC)NCCOC(=O)c1ccc([N+](=O)[O-])cc1 (centres undefined)

>  <assignedCategory>
inactive

$$$$
>  <molecule>
O=C1c2cccnc2C(=O)C2C3C=CC(C3)C12 (centres undefined)

>  <assignedCategory>
inactive

$$$$
>  <molecule>
O=C(CN1CCOCC1)c1ccc2[nH]c(=O)oc2c1

>  <assignedCategory>
inactive

$$$$
>  <molecule>
Cn1c(=O)c2c(nc3n(Cc4ccccc4)c(=O)c(Br)cn23)n(C)c1=O

>  <assignedCategory>
inactive

$$$$
>  <molecule>
CSc1ccc(/C=C2\N=C(c3ccccc3)N(/N=C/c3cc4cc(C)ccc4nc3Cl)C2=O)cc1

>  <assignedCategory>
inactive

$$$$
>  <molecule>
N#C/C(C(=O)Nc1ccccc1)=C(/N)N1CCCCC1

>  <assignedCategory>
inactive

$$$$
>  <molecule>
CC1(C)CCC2(C(=O)O)C(O)CC3(C)C(=CCC4C5(C)CCC(OC6OCC(O)C(O)C6OC6OCC(O)C(O)C6OC6OCC(O)C(OC7OC(CO)C(O)C(O)C7O)C6O)C(C)(C)C5CCC43C)C2C1 (centres undefined)

>  <assignedCategory>
inactive

$$$$
>  <molecule>
CN1C(=O)C(=CNc2ccc(Cl)cc2Cl)C(=O)N(C)C1=O

>  <assignedCategory>
inactive

$$$$

====

System: COLO 205
assaySummary: NCI tumour cell line growth inhibition, 48 h
The source made the active and inactive calls. Rule as the data show it: active = GI50 up to about 1.1 µM and inactive = higher.

>  <molecule>
Cc1csc2nc(-c3ccc([N+](=O)[O-])cc3)c(/C=N/N=C(N)N)n12

>  <GI50>
1.53 µM (inactive)

$$$$
>  <molecule>
Nc1nc2cc(CNc3ccc(C(=O)O)cc3)ccc2nc1-c1ccccc1

>  <GI50>
> 100 µM (inactive)

$$$$
>  <molecule>
Cc1cc(S(=O)(=O)N/C(=N/N)NCCc2ccccc2)c(S)cc1Cl

>  <GI50>
49.3 µM (inactive)

$$$$
>  <molecule>
O=C1CCCCCCCCCCC1CN1CCCC1 (stereo unspecified)

>  <GI50>
20.1 µM (inactive)

$$$$
>  <molecule>
O=NN(CCCl)C(=O)NC1CCSc2ccccc21 (stereo unspecified)

>  <GI50>
> 100 µM (inactive)

$$$$
>  <molecule>
COc1ccc(C)cc1NC(=S)N/N=C/c1ccco1

>  <GI50>
21.8 µM (inactive)

$$$$

====

System: ACHN
assaySummary: NCI tumour cell line growth inhibition, 48 h
Active and inactive are the calls of the source. Rule as the data show it: active = GI50 up to about 1.1 µM and inactive = higher.
Classes used: 1.0 (active), 0.0 (inactive)

>  <compound>
O=C1CCC(=O)N1n1c(Cc2ccccc2)n[nH]c1=O

>  <systemUnderTest>
ACHN

>  <assignedCategory>
0.0

$$$$
>  <compound>
COC(=O)CC1(CNC(=O)OCc2ccccc2)OCCO1

>  <systemUnderTest>
ACHN

>  <assignedCategory>
0.0

$$$$
>  <compound>
CCOC(=O)C(NC(=O)Nc1ccc(Cl)cc1)(OC)C(F)(F)F (stereo unspecified)

>  <systemUnderTest>
ACHN

>  <assignedCategory>
1.0

$$$$
>  <compound>
Cn1cnc([N+](=O)[O-])c1Sc1nnc(-c2ccc(Cl)cc2)n1C

>  <systemUnderTest>
ACHN

>  <assignedCategory>
0.0

$$$$
>  <compound>
COC(=O)C(=Cc1cc(OC)c(OC)c(OC)c1-c1cc2c(cc1C1(C)OCCS1)OCO2)C(=O)OC (stereo unspecified)

>  <systemUnderTest>
ACHN

>  <assignedCategory>
0.0

$$$$
>  <compound>
N#C/C(=N/Nc1[nH]cnc1C(N)=O)C(=O)Nc1ccccc1

>  <systemUnderTest>
ACHN

>  <assignedCategory>
0.0

$$$$
>  <compound>
ClCCN(CCCl)c1ccc(/C=N/Nc2ccnc3ccccc23)cc1

>  <systemUnderTest>
ACHN

>  <assignedCategory>
0.0

$$$$
>  <compound>
CCOC(=O)/C(=C/c1ccc(C#N)cc1)N(CC)CC

>  <systemUnderTest>
ACHN

>  <assignedCategory>
0.0

$$$$
>  <compound>
C=CCCC1CCCNC1=S (stereo unspecified)

>  <systemUnderTest>
ACHN

>  <assignedCategory>
0.0

$$$$
>  <compound>
COc1ccc(C2CC(c3c(O)ccc4ccccc34)=NN2C(C)=O)cc1OC (stereo unspecified)

>  <systemUnderTest>
ACHN

>  <assignedCategory>
0.0

$$$$
>  <compound>
CC1(C)S[C@@H]2[C@H](NC(=O)[C@H](N)c3ccccc3)C(=O)N2[C@H]1C(=O)O

>  <systemUnderTest>
ACHN

>  <assignedCategory>
0.0

$$$$
>  <compound>
CCCCCCCCCCC(C)CCCCCCC(=O)O (stereo unspecified)

>  <systemUnderTest>
ACHN

>  <assignedCategory>
0.0

$$$$
>  <compound>
O=C1CCCCCCCCCCC1CN1CCCC1 (stereo unspecified)

>  <systemUnderTest>
ACHN

>  <assignedCategory>
0.0

$$$$
>  <compound>
CC1=CCC[C@@H]2[C@@](C)(Cc3cc(O)ccc3O)[C@H](C)CC[C@@]12C

>  <systemUnderTest>
ACHN

>  <assignedCategory>
0.0

$$$$
>  <compound>
CC1(C)CC(=O)C2=C(C1)N(c1ccccc1)C1(O)C=CC(O)=C3C(=O)c4ccccc4C(=O)C321 (stereo unspecified)

>  <systemUnderTest>
ACHN

>  <assignedCategory>
0.0

$$$$
>  <compound>
COc1ccc(C23C(=O)c4ccccc4N2O[C@H]2C(=O)N(c4ccccc4)C(=O)[C@H]23)cc1 (stereo partly specified)

>  <systemUnderTest>
ACHN

>  <assignedCategory>
0.0

$$$$
>  <compound>
O=C1CCC2(CCC(=O)NC2=O)C(=O)N1

>  <systemUnderTest>
ACHN

>  <assignedCategory>
0.0

$$$$
>  <compound>
O=c1c(Cc2ccc(Cl)cc2)nnc2sc(-c3ccc([N+](=O)[O-])cc3)nn12

>  <systemUnderTest>
ACHN

>  <assignedCategory>
0.0

$$$$
>  <compound>
CCNC(=O)OCC1C2=C(C(=O)C(C)=C(N)C2=O)N2CC3C(N3C)C12OC (stereo unspecified)

>  <systemUnderTest>
ACHN

>  <assignedCategory>
0.0

$$$$
>  <compound>
CCCC(=O)Nc1cc(/C=C/C(=O)N2CC(CCl)c3c2cc(OCc2ccccc2)c2[nH]cc(C)c32)n(C)c1 (stereo unspecified)

>  <systemUnderTest>
ACHN

>  <assignedCategory>
1.0

$$$$
>  <compound>
CCOP(=O)(C/C(=N/NC(C)(C)C)C(=O)Nc1nc2ccc(C)cc2s1)OCC

>  <systemUnderTest>
ACHN

>  <assignedCategory>
0.0

$$$$
